Each entry below carries its reported Top (MFI).
- target: T1, Rhesus SLC34A2 (Rhesus, UniProt F7HDA3 1-690)
- T1 construct: whole, on cells
- T1 sequence: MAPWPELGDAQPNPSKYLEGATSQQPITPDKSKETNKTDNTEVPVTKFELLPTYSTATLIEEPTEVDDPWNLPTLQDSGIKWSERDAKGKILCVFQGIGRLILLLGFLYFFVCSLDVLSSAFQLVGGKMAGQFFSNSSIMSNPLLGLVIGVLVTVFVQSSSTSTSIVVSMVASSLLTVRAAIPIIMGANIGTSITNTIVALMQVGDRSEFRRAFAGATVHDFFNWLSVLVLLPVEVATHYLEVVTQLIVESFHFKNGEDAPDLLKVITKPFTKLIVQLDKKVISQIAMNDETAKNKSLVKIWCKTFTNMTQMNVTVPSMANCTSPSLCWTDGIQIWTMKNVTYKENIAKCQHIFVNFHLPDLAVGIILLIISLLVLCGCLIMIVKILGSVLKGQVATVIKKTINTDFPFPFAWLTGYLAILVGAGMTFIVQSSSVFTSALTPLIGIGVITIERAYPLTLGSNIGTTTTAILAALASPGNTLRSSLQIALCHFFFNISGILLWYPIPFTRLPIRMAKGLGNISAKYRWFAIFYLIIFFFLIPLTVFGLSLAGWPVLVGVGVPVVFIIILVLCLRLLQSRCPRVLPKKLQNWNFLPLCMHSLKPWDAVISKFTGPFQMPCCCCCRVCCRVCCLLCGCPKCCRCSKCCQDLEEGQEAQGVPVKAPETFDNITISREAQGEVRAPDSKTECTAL
- test.protocol: FACS, HEK293/Rhesus SLC34A2 cells
quantity.measured: Top (MFI)

>>> experimental_value("91C9F1.p1.z4 hIgG1 (antibody, V domains shown, humanized hIgG1) VH: QVQLVQSGAEVKKPGSSVKVSCKASGFFFTEYIIHWVRQAPGQGLEWMGGIIPNNDVTNYKQNFRGRVTITADESTSTAYMELSSLRSEDTAVYYCARWRNAYYSAMDSWGQGTTVTVSS VL: DIVVTQSPSSLSTSVGDRVTITCTASQDVGTAVAWYQQKPGKSPKLLIYWASTRHTGVPERFTGSGSGTDFTLTISSVQPEDVATYFCQQYRTSPLTFGVGTKLELK")
6720
>>> experimental_value("62G10E4G8 VH_P3/VL hIgG1 (antibody, V domains shown, PTM-derisked chimeric, hIgG1; that P3 is the NA version follows from the humanized .p3 chains; also called 62G10E4G8.p3 hIgG1) VH: QVQLQQSGAEVVKPGASVKMSCKASGYTFPSYITHWVKQTPGQGLEWIGAIYPGNADTSYIQKFKGKATLTADKSSSTAYMQLSSLTSEDSAVYYCARGTYGTSAWFTYWGQGTLVTVSA VL: DIVLTQSPATLSVTPGDSVSLSCRARQNIGNNLYWYQQKSHESPRLLIKYASQSISGIPSRFSGSGSGTDFTLTINSVETEDFGVYFCQQSFSWPLTFGAGTKLELK")
14400
>>> experimental_value("30H9B8F9.p1.z13 hIgG1 (antibody, V domains shown, humanized hIgG1) VH: QVQLVQSGAEVVKPGASVKMSCKTSGYTFTTNNMHWVKQAPGQGLEWIGAIYPGSGATAYNQKFKGRATLTADKSTSTAYMELSSLRSEATAVYYCARGMYGHGAMDYWGQGTSVTVSS VL: DIQLTQSPSFLSASVGDRVTITCKASQDVGTAVAWYQQKPGKAPKLLIYWATTRHSGVPSRFSGSGSGTEFTLTISSLQPEDFATYYCQQYSSNPLTFGQGTKLEIK")
15600
